Assay name: Inhibition of PKA type2 activation at 25 uM
The source made the active and inactive calls. No cut-off for these calls is given here.
Parameter: inhibition

• Cc1ccc(C)c(CSc2nc(C3CCCC3)c(C#N)c(=O)[nH]2)c1 = inactive
• Cc1ccc(C)c(CSc2nc(C3CCCCC3)c(C#N)c(=O)[nH]2)c1 = inactive
• Cc1ccc(C)c(CSc2nc(C3CC3)c(C#N)c(=O)[nH]2)c1 = inactive

---

This section lists IC50 readings for Rap guanine nucleotide exchange factor 4 (Homo sapiens, UniProt Q8WZA2).
Parameter: IC50 (µM)

- N#Cc1c(C2CCCCC2)nc(SCc2ccccc2)[nH]c1=O: 30.5
- Cc1ccc(CSc2nc(C3CCCCC3)c(C#N)c(=O)[nH]2)cc1: 38.7
